Recorded IC50 by entry
# ASSAYED SYSTEM: GSK3b (GST-full length GSK3b) (Homo sapiens (Human))
# Sequence (P49841 whole entry): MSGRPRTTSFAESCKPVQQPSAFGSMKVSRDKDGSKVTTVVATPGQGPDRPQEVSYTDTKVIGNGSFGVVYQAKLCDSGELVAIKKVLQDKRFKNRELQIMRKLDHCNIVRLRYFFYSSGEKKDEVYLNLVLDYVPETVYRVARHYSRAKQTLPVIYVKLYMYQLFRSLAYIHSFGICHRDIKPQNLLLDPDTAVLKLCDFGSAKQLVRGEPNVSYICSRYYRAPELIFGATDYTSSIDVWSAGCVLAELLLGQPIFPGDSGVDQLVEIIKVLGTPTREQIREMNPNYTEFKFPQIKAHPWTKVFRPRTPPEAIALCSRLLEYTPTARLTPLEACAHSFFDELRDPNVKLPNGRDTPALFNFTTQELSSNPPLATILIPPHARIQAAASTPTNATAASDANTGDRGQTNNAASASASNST
# EXPERIMENT SUMMARY: GSK3b TR-FRET kinase assay
# Type: biochemical
# CONDITION: GSK3-B (TR-FRET 1 mM ATP); GMean; IC50, 1 mM ATP; geometric mean

CC1(C)CC(=O)C2=C(C1)Nc1n[nH]cc1C21CCN(S(=O)(=O)C2CC2)CC1 [Compound 901470] ... 100 to 1000 nM
Cc1ncc(S(=O)(=O)N2CCC3(CC2)C2=C(CC(C)(C)CC2=O)Nc2n[nH]cc23)o1 [Compound 947611] ... 100 to 1000 nM
Cc1cccc(S(=O)(=O)N2CC[C@@]3(C2)C2=C(CC(C)(C)CC2=O)Nc2n[nH]cc23)c1 [Compound 951864] ... 1000 to 5000 nM
CCC1(c2cccc(C(F)(F)F)c2)C2=C(Nc3n[nH]cc31)C(F)C(C)(C)CC2=O (single isomer, unassigned) [Compound 837753] ... > 5000 nM
CCC1(c2cccc(C(F)(F)F)c2)C2=C(Nc3n[nH]cc31)C(F)C(C)(C)CC2=O (single isomer, unassigned) [Compound 837646] ... 1000 to 5000 nM
CC1(C)CC(=O)C2=C(C1)Nc1n[nH]cc1C21CCN(S(=O)(=O)c2ccccc2)CC1 [Compound 874530] ... 1000 to 5000 nM

Prompt line: I would be grateful if you could share the reported IC50 for CC1(C)CC(=O)C2=C(C1)Nc1n[nH]cc1C21CCN(S(=O)(=O)c2ccccc2F)CC1 [Compound 901465] .
Response line: 100 to 1000 nM

* * *

# ASSAYED SYSTEM: GSK3α (GST-full length GSK3α) (Homo sapiens (Human), UniProt P49840)
# Sequence (P49840 whole entry): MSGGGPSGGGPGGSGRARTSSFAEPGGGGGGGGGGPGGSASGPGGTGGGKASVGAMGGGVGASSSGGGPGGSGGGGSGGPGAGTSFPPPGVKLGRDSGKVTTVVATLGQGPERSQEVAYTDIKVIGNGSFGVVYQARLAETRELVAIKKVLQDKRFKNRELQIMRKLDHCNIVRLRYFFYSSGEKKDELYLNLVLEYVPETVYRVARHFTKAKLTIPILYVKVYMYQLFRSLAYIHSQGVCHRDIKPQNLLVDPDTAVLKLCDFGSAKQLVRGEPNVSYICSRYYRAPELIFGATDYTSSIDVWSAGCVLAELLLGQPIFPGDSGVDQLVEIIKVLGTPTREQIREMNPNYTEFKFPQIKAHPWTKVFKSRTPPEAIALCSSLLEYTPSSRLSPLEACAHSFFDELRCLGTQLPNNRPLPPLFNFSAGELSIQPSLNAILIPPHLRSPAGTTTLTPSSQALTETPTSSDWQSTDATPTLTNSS
# EXPERIMENT SUMMARY: GSK3α TR-FRET kinase assay
# Format: biochemical
# CONDITION: 1 nM GSK3α, 4 μM ATP, 30 minute preincubation; geometric mean; read-out: GSK3-A TR-FRET BIOCHEMICAL (TR-FRET); GMean; IC50
READOUT KIND: IC50

Observe how each entry below is paired with its result.
CCC1(c2cccc(-c3ccnc(C)c3)c2)C2=C(CC(C)(C)NC2=O)Nc2n[nH]c(C(F)(F)F)c21 (stereo not shown) [Compound 947858] ... ≤ 100 nM
CCC1(c2cccc(-c3cnn(C)c3)c2)C2=C(CC(C)(C)NC2=O)Nc2n[nH]c(Cl)c21 (stereo not shown) [Compound 948767] ... ≤ 100 nM
CCC1(c2cccc(-c3ccncc3OC3CC3)c2)C2=C(CC(C)(C)NC2=O)Nc2n[nH]cc21 (stereo not shown) [Compound 948656] ... > 5000 nM
CC[C@]1(c2cccc(-c3ccncc3C)c2)C2=C(C[C@@]3(CCCOC3)NC2=O)Nc2n[nH]cc21 [Compound 947910] ... ≤ 100 nM
CCC1(c2cccc(S(=O)(=O)CC3CC3)c2)C2=C(CC(C)(C)NC2=O)Nc2n[nH]c(C(F)(F)F)c21 (stereo not shown) [Compound 948179] ... ≤ 100 nM
CCC1(c2cccc(-c3cc(C)nnc3C)c2)C2=C(CC(C)(C)NC2=O)Nc2n[nH]c(C(F)(F)F)c21 (stereo not shown) [Compound 949174] ... ≤ 100 nM

Now examine the next entry.
Prompt line: I would be grateful if you could share the reported IC50 for CC(C)(C)Cc1[nH]nc2c1C1(CCc3cccc(F)c31)C1=C(CC(C)(C)CC1=O)N2 (stereo not shown) [Compound 801351] .
Response line: > 1670 nM

* * *

Recorded IC50 by entry
# ASSAYED SYSTEM: GSK3α (GST-full length GSK3α) (Homo sapiens (Human), UniProt P49840)
# EXPERIMENT SUMMARY: GSK3α TR-FRET kinase assay
# Assay type: biochemical
# CONDITION: read-out: GSK3-A (TR-FRET 1 mM ATP); GMean; IC50; 1 mM ATP; geometric mean

Observe how each entry below is paired with its result.
CCC1(c2cccc(N(C)c3cccnn3)c2)C2=C(CC(C)(C)CC2=O)Nc2n[nH]cc21 (stereo not drawn) [Compound 911975] ... 100 to 1000 nM
CC[C@]1(c2cccc(-c3cn[nH]c3)c2)C2=C(CC(C)(C)NC2=O)Nc2n[nH]c(C(F)(F)F)c21 [Compound 948307] ... ≤ 100 nM
CCC1(c2cccc(-c3ccncc3F)c2)C2=C(CC(C)(C)NC2=O)Nc2n[nH]c(Cl)c21 (stereo not drawn) [Compound 949324] ... 100 to 1000 nM
C[S+]([O-])c1cccc(C2(C)C3=C(CC(C)(C)CC3=O)Nc3n[nH]c(CC(C)(C)C)c32)c1 (stereo not drawn) [Compound 126191] ... > 5000 nM
CCC1(c2cccc(-c3cn[nH]c3)c2)C2=C(CC(C)(C)CC2=O)Nc2n[nH]c(C)c21 (stereo not drawn) [Compound 913025] ... ≤ 100 nM

Prompt line: Lab note: need IC50 for CC[C@@]1(c2cccc(-c3cnn(C)c3)c2)C2=C(CC(C)(C)NC2=O)Nc2n[nH]c(C(F)F)c21 [Compound 949919] on GSK3α (GST-full length GSK3α) (Homo sapiens (Human), UniProt P49840), anyone have it?
Response line: ≤ 100 nM

Prompt line: Note, next up: CCC1(c2cccc(N3CCCC3)c2)C2=C(CC(C)(C)NC2=O)Nc2n[nH]c(C(F)(F)F)c21 (stereo not drawn) [Compound 947860]
Response line: ≤ 100 nM

Prompt line: Note, next up: CC[C@]1(c2cccc(C(F)F)c2)C2=C(CC(C)(C)NC2=O)Nc2n[nH]cc21 [Compound 949006]
Response line: 100 to 1000 nM

Prompt line: Note, next up: CCC1(c2cccc(C(F)(F)F)c2)C2=C(CN(Cc3ccccc3)C2=O)Nc2n[nH]cc21 (stereo not drawn) [Compound 929388]
Response line: 100 to 1000 nM

Prompt line: Note, next up: CC1(C)CC(=O)C2=C(C1)Nc1n[nH]c(C3CC(F)(F)C3)c1C21COc2ccccc21 (stereo not drawn) [Compound 127430]
Response line: 1000 to 5000 nM

Prompt line: Note, next up: CCC1(c2cccc(C(F)(F)F)c2)C2=C(CCN(c3cncnc3)C2=O)Nc2n[nH]cc21 (stereo not drawn) [Compound 948379]
Response line: 100 to 1000 nM

Prompt line: Note, next up: CC[C@]1(c2cccc(-c3cnn4c3CCCC4)c2)C2=C(CC(C)(C)NC2=O)Nc2n[nH]cc21 [Compound 947410]
Response line: 100 to 1000 nM

Prompt line: Note, next up: CCC1(c2cccc(N3CCCC3)c2)C2=C(CC(C)(C)CC2=O)Nc2n[nH]c(C(F)(F)F)c21 (stereo not drawn) [Compound 819575]
Response line: ≤ 100 nM

Prompt line: Note, next up: CC[C@]1(c2cccc(S(=O)(=O)C3CC3)c2)C2=C(CC(C)(C)N(C)C2=O)Nc2n[nH]cc21 [Compound 949177]
Response line: 100 to 1000 nM

Prompt line: Note, next up: CC[C@]1(c2cccc(Cc3ncccn3)c2)C2=C(CC(C)(C)CC2=O)Nc2n[nH]cc21 [Compound 947499]
Response line: > 5000 nM

* * *

# ASSAYED SYSTEM: UniProtKB P49840
# EXPERIMENT SUMMARY: GSK3α TR-FRET kinase assay
# Type: biochemical
# CONDITION: 1 nM GSK3α, 4 μM ATP, 30 minute preincubation; geometric mean; read-out: GSK3-A TR-FRET BIOCHEMICAL (TR-FRET); GMean; IC50
pIC50: −log10 of the molar value.
Recorded pIC50 by entry

Observe how each entry below is paired with its result.
CCC1(c2cccc(C(F)(F)F)c2)C2=C(CC(C)CC2=O)Nc2n[nH]cc21 (mixture of isomers) [Compound 801397] ... ≥ 7.00
CC[C@@]1(c2cccc(-c3ccncc3C)c2)C2=C(C[C@@]3(CCCOC3)NC2=O)Nc2n[nH]cc21 ... ≥ 7.00
CC[C@]1(c2ccccc2)C2=C(C[C@@](C)(C(F)(F)F)CC2=O)Nc2n[nH]cc21 ... < 5.30
CCC1(c2cccc(-c3ccnc(C)c3C)c2)C2=C(CC(C)(C)NC2=O)Nc2n[nH]c(C(F)(F)F)c21 (stereo not shown) ... ≥ 7.00
CC1(C)CC(=O)C2=C(C1)Nc1n[nH]c(C(F)(F)F)c1C21CCCOc2ccccc21 (stereo not shown) ... < 5.30
CC1(C)CC(=O)C2=C(C1)Nc1n[nH]c(CC(F)(F)F)c1C21CCc2c(F)cccc21 (stereo not shown) [Compound 810590] ... 6.00 to 7.00

Now examine the next entry.
Prompt line: I would be grateful if you could share the reported pIC50 for CCC1(c2ccccc2)C2=C(CC3(CCCC3)CC2=O)Nc2n[nH]cc21 (stereo not shown) .
Response line: ≥ 7.00
